Test system: Eastern equine encephalitis virus
method.description: Antiviral activity against eastern equine encephalitis virus infected in African green monkey Vero 76 cells assessed as reduction on virus yield at 5 uM after 18 hrs of post infection
Type: functional
observed.property: Activity
Please give the numeric answer without any surrounding text.

Field: example entries. Status: answers known.
Fill blank: measured Activity of the molecule CN1CCN(C)C2C1=Nc1ccc([N+](=O)[O-])cc1C(=O)N2c1ccccc1 (centres undefined) is ____.
5.7

And then COc1ccc(N2C(=O)c3cc(C#N)cc(-c4ccc(C)nc4)c3N=C3[C@@H]2N(C)CCN3C)cc1F , what is it?
5.9

Another molecule: COc1ccc(N2C(=O)c3cc([N+](=O)[O-])ccc3N=C3C2N(C)CCN3C)cc1 (centres undefined)
7.9

Follow-up entry: COc1cccc(N2C(=O)c3cc([N+](=O)[O-])ccc3N=C3C2N(C)CCN3C)c1 (centres undefined)
5.7

Consider next the molecule COc1ccc(N2C(=O)c3cc([N+](=O)[O-])ccc3N=C3C2N(C)CCN3C)cc1F (centres undefined) in the same way.
7.7

Queued: COc1ccc(N2C(=O)c3cc(C#N)cc(N4CCOCC4)c3N=C3C2N(C)CCN3C)cc1F (centres undefined)
4

Now consider COc1ccc(N2C(=O)c3cc(C#N)cc(-c4ccc(C)nc4)c3N=C3[C@H]2N(C)CCN3C)cc1F and answer again.
5.2

Repeat with COc1ccc(N2C(=O)c3cc(C#N)cc(-c4ccc(C)nc4)c3N=C3C2N(C)CCN3C)cc1F (racemic)
6.9

Would you kindly look at the next entry?
Entry CN1CCN(C)C2C1=Nc1ccc([N+](=O)[O-])cc1C(=O)N2c1ccc(F)cc1 (centres undefined) has what Activity?
6.1
